- Tested on: NF-κB
- assay info: NF-κB inhibitory assay (luciferase, HEK293 with stable NF-κB expression, TNF-α stimulation)
- Type: cell-based
- measurement context: Homo sapiens; HEK293 NF-κB luciferase, 20 ng/mL TNF-α, 6 h; mean SEM of triplicated experiments; read-out: NF-κB (IC50)
endpoint label: pIC50
One number for each entry, as −log10 of the molar value.

input: So what's the measured pIC50 for this one? CC(C)C[C@H](NC(=O)[C@H](Cc1ccccc1)NC(=O)c1cnccn1)B(O)O [PS-341, Bortezomib, reference compound]
output: 6.36
